target: CYP2C19 (Homo sapiens, UniProt P33261)
Sequence (P33261 whole entry): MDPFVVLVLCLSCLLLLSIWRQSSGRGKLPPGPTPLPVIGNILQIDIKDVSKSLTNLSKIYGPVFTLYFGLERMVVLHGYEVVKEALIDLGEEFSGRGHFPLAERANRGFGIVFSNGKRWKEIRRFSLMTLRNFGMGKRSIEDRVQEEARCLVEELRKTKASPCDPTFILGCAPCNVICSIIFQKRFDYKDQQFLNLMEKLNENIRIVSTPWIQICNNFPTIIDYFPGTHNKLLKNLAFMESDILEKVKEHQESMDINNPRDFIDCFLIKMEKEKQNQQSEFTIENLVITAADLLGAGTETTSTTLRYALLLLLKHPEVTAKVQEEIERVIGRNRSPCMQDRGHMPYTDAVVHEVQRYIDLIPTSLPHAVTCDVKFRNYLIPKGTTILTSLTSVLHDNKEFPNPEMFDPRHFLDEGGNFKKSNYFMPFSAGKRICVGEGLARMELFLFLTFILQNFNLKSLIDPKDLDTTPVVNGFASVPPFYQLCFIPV
pKi: −log10 of the molar value.
Outcome measure: pKi

Request: Look up pKi of CN1CCC(COc2cnc(-c3cccc(Cn4nc(-c5cccc(C#N)c5)ccc4=O)c3)nc2)CC1 [tepotinib] and report it.
Response: ≤ 4.96

----------
molecular target: CYP2A6 (Homo sapiens, UniProt P11509); construct: pooled mixed-gender human liver microsomes; from tissue; host or cells: pooled mixed-gender human liver microsomes; test: CYP2A6 inhibition in pooled human liver microsomes; format: in vitro ADME; settings: Coumarin 7-hydroxylation; 30-min preincubation; read-out: Time-dependent inhibition IC50
Outcome measure: IC50 (µM)
Give bare numbers, in µM.

Request: Look up IC50 of CN1CCC(COc2cnc(-c3cccc(Cn4nc(-c5cccc(C#N)c5)ccc4=O)c3)nc2)CC1 [tepotinib] and report it.
Response: 39

----------
target: CYP2C19 (Homo sapiens); construct: pooled mixed-gender human liver microsomes; from tissue; host or cells: pooled mixed-gender human liver microsomes; assay: CYP2C19 inhibition in pooled human liver microsomes; format: in vitro ADME; conditions: both sexes, human, pooled human liver microsomes, probe S-mephenytoin (4-hydroxylation), S-Mephenytoin 4-hydroxylation; zero-minute preincubation; 49.5 µM; read-out: Direct inhibition, maximum inhibition at 49.5 µM
Outcome measure: inhibition at 49.5 µM (%)
One number for each entry, in %.

Request: With CYP2C19 (Homo sapiens) as the test system, provide measured inhibition at 49.5 µM for this molecule: `CN1CCC(COc2cnc(-c3cccc(Cn4nc(-c5cccc(C#N)c5)ccc4=O)c3)nc2)CC1`
Response: 64

----------
molecular target: CYP2D6 (Homo sapiens, UniProt P10635); construct: pooled mixed-gender human liver microsomes; from tissue; host or cells: pooled mixed-gender human liver microsomes; assay: in vitro; type: in vitro ADME; settings: both sexes, human, microsomes, Dextromethorphan O-demethylation; 30-min preincubation; 49.5 µM; read-out: Time-dependent inhibition, maximum inhibition at 49.5 µM
Sequence (P10635 whole entry): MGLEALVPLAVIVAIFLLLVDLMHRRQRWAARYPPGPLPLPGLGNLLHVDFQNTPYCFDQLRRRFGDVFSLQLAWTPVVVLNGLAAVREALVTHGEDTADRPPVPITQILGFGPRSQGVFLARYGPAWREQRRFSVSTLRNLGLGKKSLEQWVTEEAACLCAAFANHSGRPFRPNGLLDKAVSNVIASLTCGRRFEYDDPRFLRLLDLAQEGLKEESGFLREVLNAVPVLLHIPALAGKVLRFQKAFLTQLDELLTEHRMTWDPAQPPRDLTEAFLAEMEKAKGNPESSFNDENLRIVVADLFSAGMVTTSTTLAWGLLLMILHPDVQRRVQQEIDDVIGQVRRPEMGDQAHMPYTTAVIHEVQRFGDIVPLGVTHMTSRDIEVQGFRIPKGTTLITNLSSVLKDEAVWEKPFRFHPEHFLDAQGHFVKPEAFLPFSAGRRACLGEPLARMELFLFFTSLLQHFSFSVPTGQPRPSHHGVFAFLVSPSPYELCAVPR
Outcome measure: inhibition at 49.5 µM (%)
Numbers only, in %.

Request: Look up inhibition at 49.5 µM of CN1CCC(COc2cnc(-c3cccc(Cn4nc(-c5cccc(C#N)c5)ccc4=O)c3)nc2)CC1 [tepotinib] and report it.
Response: 24

----------
Molecular target: CYP1A2 (Homo sapiens, UniProt P05177)
Construct: pooled mixed-gender human liver microsomes; from tissue; host or cells: pooled mixed-gender human liver microsomes
Sequence (P05177 1-516): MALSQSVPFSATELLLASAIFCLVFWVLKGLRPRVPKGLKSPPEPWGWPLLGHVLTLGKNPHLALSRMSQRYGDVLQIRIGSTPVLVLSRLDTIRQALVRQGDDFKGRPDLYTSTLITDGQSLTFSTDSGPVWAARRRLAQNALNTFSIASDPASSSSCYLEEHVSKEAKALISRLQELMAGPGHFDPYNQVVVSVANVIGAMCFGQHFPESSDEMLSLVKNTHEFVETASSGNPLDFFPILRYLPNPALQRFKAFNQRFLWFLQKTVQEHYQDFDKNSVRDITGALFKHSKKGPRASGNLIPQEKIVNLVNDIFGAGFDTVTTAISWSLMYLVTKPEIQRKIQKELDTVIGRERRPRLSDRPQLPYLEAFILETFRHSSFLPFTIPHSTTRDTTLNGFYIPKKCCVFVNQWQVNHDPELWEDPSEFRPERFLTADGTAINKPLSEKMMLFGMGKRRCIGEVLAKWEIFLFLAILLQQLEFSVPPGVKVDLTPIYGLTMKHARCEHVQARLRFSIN
Assay: CYP1A2 inhibition in pooled human liver microsomes
Assay type: in vitro ADME
Outcome measure: IC50

Request: Look up IC50 of `CN1CCC(COc2cnc(-c3cccc(Cn4nc(-c5cccc(C#N)c5)ccc4=O)c3)nc2)CC1` and report it.
Response: > 49.5 µM

----------
biological target: UniProtKB P08684; assay: Study 1 (NCT03628339): effect of tepotinib on midazolam pharmacokinetics in healthy participants; conditions: human, plasma, po, 7.5 mg
Outcome measure: AUC0-t (ng·h/mL)
Answers are plain numbers, in ng·h/mL.

Request: With UniProtKB P08684 as the test system, provide measured AUC0-t for this compound: `Cc1ncc2n1-c1ccc(Cl)cc1C(c1ccccc1F)=NC2`
Response: 108

----------
target: CYP2C8 (Homo sapiens, UniProt P10632); experiment: CYP2C8 inhibition in pooled human liver microsomes; format: in vitro ADME; conditions: Amodiaquine N-dealkylation; 30-min preincubation; read-out: Time-dependent inhibition IC50
Sequence (P10632 whole entry): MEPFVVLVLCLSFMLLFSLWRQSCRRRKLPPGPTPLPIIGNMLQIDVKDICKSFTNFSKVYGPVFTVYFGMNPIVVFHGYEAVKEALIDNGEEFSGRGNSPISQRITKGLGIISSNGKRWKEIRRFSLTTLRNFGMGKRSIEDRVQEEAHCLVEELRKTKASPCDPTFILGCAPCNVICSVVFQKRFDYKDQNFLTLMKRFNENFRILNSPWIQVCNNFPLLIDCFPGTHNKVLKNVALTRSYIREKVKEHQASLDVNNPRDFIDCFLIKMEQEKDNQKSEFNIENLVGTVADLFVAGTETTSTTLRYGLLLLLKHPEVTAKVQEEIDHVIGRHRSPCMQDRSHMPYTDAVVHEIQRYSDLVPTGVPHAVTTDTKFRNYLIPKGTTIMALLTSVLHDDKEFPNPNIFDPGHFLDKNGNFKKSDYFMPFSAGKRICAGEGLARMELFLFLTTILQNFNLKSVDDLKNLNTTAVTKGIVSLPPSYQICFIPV
Outcome measure: IC50
# answer = value followed by unit

Request: Look up IC50 of `CN1CCC(COc2cnc(-c3cccc(Cn4nc(-c5cccc(C#N)c5)ccc4=O)c3)nc2)CC1` and report it.
Response: 13 µM

----------
assay: Tepotinib steady-state pharmacokinetics at the clinical dose; conditions: human, in vivo, oral, 500 mg, Median steady state Tmax
Outcome measure: Tmax

Request: Look up Tmax of `CN1CCC(COc2cnc(-c3cccc(Cn4nc(-c5cccc(C#N)c5)ccc4=O)c3)nc2)CC1` and report it.
Response: 8 h

----------
Test system: CYP3A4/5
Test: CYP3A4/5 inhibition in pooled human liver microsomes
Format: in vitro ADME
Details: both sexes, human, microsomes, human liver microsomes; Testosterone 1’-hydroxylation; zero-minute preincubation; read-out: Direct inhibition IC50
Procedure: The potential of tepotinib and MSC2571109A to inhibit CYP450 enzymes CYP1A2, 2A6, 2B6, 2C8, 2C9, 2C19, 2D6, 2E1, and 3A4/5 in vitro was evaluated using CYP-catalyzed reactions in pooled mixed-gender human liver microsomes using specific substrates and liquid chromatography/tandem mass spectrometry (LC–MS/MS) readouts. […] Assessments of mechanism-based inhibition of the above listed CYP450 enzymes were conducted after pre-incubation of the microsomes with tepotinib or MSC2571109A. […]
Outcome measure: pIC50
One number for each entry, as −log10 of the molar value.

Request: Look up pIC50 of `CN1CCC(COc2cnc(-c3cccc(Cn4nc(-c5cccc(C#N)c5)ccc4=O)c3)nc2)CC1` and report it.
Response: 4.51

----------
system: CYP3A4/5; test: CYP3A4/5 inhibition in pooled human liver microsomes; type: in vitro ADME; settings: both sexes, human, microsomes, human liver microsomes; Nifedipine oxidation; zero-minute preincubation; read-out: Direct inhibition IC50
Outcome measure: IC50

Request: Look up IC50 of `CN1CCC(COc2cnc(-c3cccc(Cn4nc(-c5cccc(C#N)c5)ccc4=O)c3)nc2)CC1` and report it.
Response: 26 µM

----------
Molecular target: CYP2A6 (Homo sapiens, UniProt P11509)
Construct: pooled mixed-gender human liver microsomes; from tissue; host or cells: pooled mixed-gender human liver microsomes
Sequence (P11509 1-494): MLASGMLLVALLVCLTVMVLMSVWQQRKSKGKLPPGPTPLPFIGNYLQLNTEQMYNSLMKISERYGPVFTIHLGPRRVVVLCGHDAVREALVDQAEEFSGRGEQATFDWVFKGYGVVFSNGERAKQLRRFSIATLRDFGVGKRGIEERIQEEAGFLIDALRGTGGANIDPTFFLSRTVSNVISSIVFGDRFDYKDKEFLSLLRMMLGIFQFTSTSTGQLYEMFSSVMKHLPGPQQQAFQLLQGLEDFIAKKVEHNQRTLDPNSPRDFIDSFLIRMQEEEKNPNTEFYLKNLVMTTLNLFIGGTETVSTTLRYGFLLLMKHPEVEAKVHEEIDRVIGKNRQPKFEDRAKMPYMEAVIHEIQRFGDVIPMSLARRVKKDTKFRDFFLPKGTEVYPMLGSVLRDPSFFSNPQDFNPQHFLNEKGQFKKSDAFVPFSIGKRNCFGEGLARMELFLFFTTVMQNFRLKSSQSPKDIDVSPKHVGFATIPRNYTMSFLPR
Experiment: CYP2A6 inhibition in pooled human liver microsomes
Assay type: in vitro ADME
Conditions: human liver microsomes; Coumarin 7-hydroxylation; zero-minute preincubation; read-out: Direct inhibition IC50
Procedure: The potential of tepotinib and MSC2571109A to inhibit CYP450 enzymes CYP1A2, 2A6, 2B6, 2C8, 2C9, 2C19, 2D6, 2E1, and 3A4/5 in vitro was evaluated using CYP-catalyzed reactions in pooled mixed-gender human liver microsomes using specific substrates and liquid chromatography/tandem mass spectrometry (LC–MS/MS) readouts. […] Testosterone 6β-hydroxylation was assessed in the MSC2571109A study. […]
pIC50: −log10 of the molar value.
Outcome measure: pIC50

Request: With CYP2A6 (Homo sapiens, UniProt P11509) as the test system, provide measured pIC50 for this compound: `CN1CCC(COc2cnc(-c3cccc(Cn4nc(-c5cccc(C#N)c5)ccc4=O)c3)nc2)CC1`
Response: < 4.31

----------
target: CYP3A4 (Homo sapiens, UniProt P08684); assay: Study 1 (NCT03628339): effect of tepotinib on midazolam pharmacokinetics in healthy participants; conditions: human, plasma, oral
Sequence (P08684 whole entry): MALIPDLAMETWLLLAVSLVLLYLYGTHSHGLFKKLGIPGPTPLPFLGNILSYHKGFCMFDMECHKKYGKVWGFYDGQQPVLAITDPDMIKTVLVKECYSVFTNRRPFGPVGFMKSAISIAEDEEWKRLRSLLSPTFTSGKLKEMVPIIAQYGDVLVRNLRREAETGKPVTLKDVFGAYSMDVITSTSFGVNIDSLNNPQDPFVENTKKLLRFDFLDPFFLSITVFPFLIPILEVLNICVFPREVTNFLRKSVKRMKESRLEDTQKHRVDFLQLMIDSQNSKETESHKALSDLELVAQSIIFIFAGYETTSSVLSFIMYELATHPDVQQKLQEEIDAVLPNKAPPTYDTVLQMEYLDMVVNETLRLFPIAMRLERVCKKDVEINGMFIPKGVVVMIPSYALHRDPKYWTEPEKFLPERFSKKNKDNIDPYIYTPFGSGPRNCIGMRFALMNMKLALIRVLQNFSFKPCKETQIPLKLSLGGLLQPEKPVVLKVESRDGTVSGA
Outcome measure: Tmax (min)
One number for each entry, in min.

Request: Look up Tmax of `Cc1ncc2n1-c1ccc(Cl)cc1C(c1ccccc1F)=NC2` and report it.
Response: 30.5

----------
test system: CYP3A4/5; experiment: CYP3A4/5 inhibition in pooled human liver microsomes; assay type: in vitro ADME; details: both sexes, human, microsomes, Testosterone 1’-hydroxylation; 30-min preincubation; read-out: Time-dependent inhibition IC50
Outcome measure: IC50 (µM)
One number for each entry, in µM.

Request: With CYP3A4/5 as the test system, provide measured IC50 for this molecule: `CN1CCC(COc2cnc(-c3cccc(Cn4nc(-c5cccc(C#N)c5)ccc4=O)c3)nc2)CC1`
Response: 37
